Experimental target: T1, human RANKL protein (human, UniProt O14788 140-317, limits assumed)
T1 sequence (looked up): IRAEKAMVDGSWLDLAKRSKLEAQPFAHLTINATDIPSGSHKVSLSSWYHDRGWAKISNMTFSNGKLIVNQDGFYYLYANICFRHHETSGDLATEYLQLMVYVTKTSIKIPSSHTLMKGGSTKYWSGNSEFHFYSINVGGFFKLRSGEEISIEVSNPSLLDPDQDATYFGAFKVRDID
Assay protocol: surface plasmon resonance
I'd appreciate it if you could supply koff values for the items below.
Answers are plain numbers, in s⁻¹.

Worked cases, answers included:
- clone 327 rabbit anti-RANKL antibody (antibody, V domains shown) VH: QSLEESGGRLVTPGTPLTLTCTVSGFSLSKYEINWVRQAPGKGLEWIGYIDVGSGTWYASWAKGRFTISKTSTTVALRITSPTTEDTATYFCSRQYNPMDLWGPGTLVTVSS VL: DMTQTPASVEAAVGGTVTIKCQASQNIGSNLAWYQQKPGQRPKLLIYSASTLASGVPSRFKGSGSGTQFTLTISGVQCDDAATYYCQQGYSVGNVNNAFGGGTEVVVK: 0.0003
- clone EBI-51-22 rabbit anti-RANKL antibody (antibody, V domains shown) VH: QSVEESGGRLVTPGTLLTLTCTVSGFSLSTDVLSWVRQAPGKGLEWIGYTWSGGSTYYASWAKGRFTISKTSSTTVDLKITSPTTEDTATYFCARGFNPFDPWGPGTLVTVSS VL: DMTQTPASVSDPVGGTVTIKCQASQNIGSNLAWYQQKPGQRPKLLIYRASTLASGVSSRFKGSGSGTQFTLTISDLECADAATYYCQQGYSAGNVDNNAFGGGTEVVVK: 0.000275

Here is another binder to look at.
Just so you know, measured koff for clone 408 rabbit anti-RANKL antibody (antibody, V domains shown) VH: QSVEESGGRLVTPGTPLTLTCTVSGFSLSTDVVSWVRQAPGKGLEWIGYTWNGGATFYASWAKGRFTFSKTSTTVDLKITSPTTEDTATYFCARGYNGMDPWGPGTLVTVSS VL: DMTQTPASVEAAVGGAVTIKCQASQNIGSNLAWYHQKPGQPPKLLISKASTLASGVPSRFKGSGSGTEFTLAISDLECADAATYYCQQGYTTKNVVNPFGGGTEVVVK came out at 0.000262

Values from patent US20160032001A1
